Target: human PAH with the R408W mutation (Homo sapiens, UniProt P00439, R408W)
Construct: expressed in transfected cells
Sequence (P00439 1-452 R408W): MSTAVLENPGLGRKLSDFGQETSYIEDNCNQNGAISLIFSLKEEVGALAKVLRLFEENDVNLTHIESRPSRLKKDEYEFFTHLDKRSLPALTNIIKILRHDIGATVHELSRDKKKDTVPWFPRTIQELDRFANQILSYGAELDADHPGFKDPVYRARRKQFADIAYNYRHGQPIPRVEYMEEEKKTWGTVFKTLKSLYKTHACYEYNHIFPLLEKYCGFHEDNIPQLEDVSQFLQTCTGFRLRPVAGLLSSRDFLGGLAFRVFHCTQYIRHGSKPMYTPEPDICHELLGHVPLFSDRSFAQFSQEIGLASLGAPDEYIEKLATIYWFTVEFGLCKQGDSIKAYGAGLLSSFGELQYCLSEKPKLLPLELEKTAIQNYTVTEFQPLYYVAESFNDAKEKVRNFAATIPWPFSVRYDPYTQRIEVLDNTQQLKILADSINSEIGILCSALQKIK
Assay: Cell Based Phenylalanine Flux Assay;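 further: after compound treatment, cells received sepiapterin plus isotope-labelled Phenylalanine for 4 hours, then labelled Tyrosine in the medium was quantified, 10-point 2-fold dilution series run in duplicate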
Details: A375 cells expressing human R408W PAH; 24 hrs compound incubation; 13C-Tyrosine by LC-MS; average where tested multiple times; read-out: AC50
Reported AC50 by item:

| MOLECULAR_STRING | TARGET_ENTITY | AC50 |
| --- | --- | --- |
| Cn1ncnc1C(=O)N1CCc2[nH]cnc2[C@H]1c1cc2c(F)cccn2n1 | human PAH with the R408W mutation (Homo sapiens, UniProt P00439, R408W) | 0.5 to 1 µM |
| C[C@@H](O)c1nc(C(F)F)c(C(=O)N2CCc3[nH]cnc3[C@H]2c2cc3c(Cl)cccn3n2)o1 | human PAH with the R408W mutation (Homo sapiens, UniProt P00439, R408W) | < 0.5 µM |
| CC(C)(O)c1nc(Br)c(C(=O)N2CCc3[nH]cnc3[C@H]2c2cc3ccccn3n2)o1 | human PAH with the R408W mutation (Homo sapiens, UniProt P00439, R408W) | < 0.5 µM |
| O=C(c1ccnn1C(F)F)N1CCc2[nH]cnc2[C@H]1c1cc2cc(C(F)(F)F)ccn2n1 | human PAH with the R408W mutation (Homo sapiens, UniProt P00439, R408W) | < 0.5 µM |
| CC(C)(O)c1nc(C(F)F)c(C(=O)N2CCc3[nH]cnc3[C@H]2c2cc3cc(F)ccn3n2)o1 | human PAH with the R408W mutation (Homo sapiens, UniProt P00439, R408W) | < 0.5 µM |
| O=C(c1ccnn1C(F)F)N1CCc2[nH]cnc2[C@@H]1c1cc2c(F)cccn2n1 | human PAH with the R408W mutation (Homo sapiens, UniProt P00439, R408W) | > 5 µM |
| O=C(c1nnc(-c2ccc(C(F)(F)F)cn2)o1)N1CCc2[nH]cnc2[C@@H]1c1cc2c(F)cccn2n1 | human PAH with the R408W mutation (Homo sapiens, UniProt P00439, R408W) | > 5 µM |
| COc1ccc(-c2nnc(C(=O)N3CCc4[nH]cnc4[C@@H]3c3cc4cccc(F)n4n3)o2)nc1 | human PAH with the R408W mutation (Homo sapiens, UniProt P00439, R408W) | > 5 µM |
| O=C(c1nnc(-c2ccn(C(F)(F)F)n2)o1)N1CCc2[nH]cnc2[C@@H]1c1cc2c(OC(F)F)cccn2n1 | human PAH with the R408W mutation (Homo sapiens, UniProt P00439, R408W) | > 5 µM |
| O=C(c1nnc(-c2cnn(C(F)(F)F)c2)o1)N1CCc2[nH]cnc2[C@@H]1c1cc2cccc(C(F)F)n2n1 | human PAH with the R408W mutation (Homo sapiens, UniProt P00439, R408W) | > 5 µM |
| Cc1ccc2c(C(=O)N3CCc4[nH]cnc4[C@@H]3c3cc4c(C(F)F)cccn4n3)cnn2c1 | human PAH with the R408W mutation (Homo sapiens, UniProt P00439, R408W) | > 5 µM |
| O=C(c1nnc(C2CC2)o1)N1CCc2[nH]cnc2[C@H]1c1cc2c(C(F)(F)F)cccn2n1 | human PAH with the R408W mutation (Homo sapiens, UniProt P00439, R408W) | < 0.5 µM |
| O=C(c1cnco1)N1CCc2[nH]cnc2[C@H]1c1cc2c(Cl)cccn2n1 | human PAH with the R408W mutation (Homo sapiens, UniProt P00439, R408W) | < 0.5 µM |
| Cc1cccc2cc([C@H]3c4nc[nH]c4CCN3C(=O)c3nnc(-c4ccn(C(F)F)n4)o3)nn12 | human PAH with the R408W mutation (Homo sapiens, UniProt P00439, R408W) | > 5 µM |
| N#Cc1ncoc1C(=O)N1CCc2[nH]cnc2[C@@H]1c1cc2c(Cl)cccn2n1 | human PAH with the R408W mutation (Homo sapiens, UniProt P00439, R408W) | 1 to 5 µM |
| O=C(c1nnc(-c2ccncc2)o1)N1CCc2[nH]cnc2[C@@H]1c1cc2c(F)cccn2n1 | human PAH with the R408W mutation (Homo sapiens, UniProt P00439, R408W) | 1 to 5 µM |
| CC(C)(C#N)c1nc(C(F)F)c(C(=O)N2CCc3[nH]cnc3[C@H]2c2cc3ccccn3n2)o1 | human PAH with the R408W mutation (Homo sapiens, UniProt P00439, R408W) | < 0.5 µM |
| Cn1ccc(-c2nnc(C(=O)N3CCc4[nH]cnc4[C@@H]3c3cc4cccc(Cl)n4n3)o2)n1 | human PAH with the R408W mutation (Homo sapiens, UniProt P00439, R408W) | > 5 µM |
| O=C(c1nnc(-c2ccn(C(F)F)n2)o1)N1CCc2[nH]cnc2[C@@H]1c1cc2c(OC(F)F)cccn2n1 | human PAH with the R408W mutation (Homo sapiens, UniProt P00439, R408W) | > 5 µM |
| Cc1cccc(-c2nnc(C(=O)N3CCc4[nH]cnc4[C@@H]3c3cc4c(C(F)F)cccn4n3)o2)n1 | human PAH with the R408W mutation (Homo sapiens, UniProt P00439, R408W) | 1 to 5 µM |
| Cc1ncccc1-c1nnc(C(=O)N2CCc3[nH]cnc3[C@@H]2c2cc3cccc(Cl)n3n2)o1 | human PAH with the R408W mutation (Homo sapiens, UniProt P00439, R408W) | > 5 µM |
| Cc1ncoc1C(=O)N1CCc2[nH]cnc2[C@@H]1c1cc2c(C)cccn2n1 | human PAH with the R408W mutation (Homo sapiens, UniProt P00439, R408W) | 1 to 5 µM |
| CC(C)(C)c1nnc(C(=O)N2CCc3[nH]cnc3[C@H]2c2cc3c(C(F)(F)F)cccn3n2)o1 | human PAH with the R408W mutation (Homo sapiens, UniProt P00439, R408W) | < 0.5 µM |
| Cc1cccn2nc([C@@H]3c4nc[nH]c4CCN3C(=O)c3nnc(-c4ncccn4)o3)cc12 | human PAH with the R408W mutation (Homo sapiens, UniProt P00439, R408W) | 0.5 to 1 µM |
| Cc1cccc2cc([C@H]3c4nc[nH]c4CCN3C(=O)c3cnn4cc(CN(C)C)ccc34)nn12 | human PAH with the R408W mutation (Homo sapiens, UniProt P00439, R408W) | > 5 µM |
| Cc1cccn2nc([C@@H]3c4nc[nH]c4CCN3C(=O)c3cnn4cc(-c5cnn(C)c5)ccc34)cc12 | human PAH with the R408W mutation (Homo sapiens, UniProt P00439, R408W) | 0.5 to 1 µM |
| O=C(c1nnc(-c2ccccn2)o1)N1CCc2[nH]cnc2[C@H]1c1cc2ccc(F)cn2n1 | human PAH with the R408W mutation (Homo sapiens, UniProt P00439, R408W) | 0.5 to 1 µM |
| COc1cccn2nc([C@@H]3c4nc[nH]c4CCN3C(=O)c3nnc(C(C)(C)C)o3)cc12 | human PAH with the R408W mutation (Homo sapiens, UniProt P00439, R408W) | 0.5 to 1 µM |
| Cn1nc(C(F)F)cc1C(=O)N1CCc2[nH]cnc2[C@@H]1c1cc2c(Cl)cccn2n1 | human PAH with the R408W mutation (Homo sapiens, UniProt P00439, R408W) | 1 to 5 µM |
| Cc1cccc2cc([C@H]3c4nc[nH]c4CCN3C(=O)c3oc(C(C)(C)F)nc3C(F)F)nn12 | human PAH with the R408W mutation (Homo sapiens, UniProt P00439, R408W) | 1 to 5 µM |
